Each recorded value in this set is attributed to the supplement of paper PMC10567573.

B1: FCHSD1 (parent)
chain: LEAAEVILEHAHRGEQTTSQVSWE

Variants of: B1
Assay Details: protein stability index of a GFP-peptide fusion (GPS, HEK-293T) (PSI 1-6); higher = more stable;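 note: lentivirally expressed fusions sorted by FACS into six bins by GFP to DsRed ratio, PSI derived from sequencing read proportions per bin multiplied by bin number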
Run Conditions: c terminus: a fixed tail appended
Given measured protein stability index, output true (1) if it is greater than or equal to 4 and false (0) if not.

LEAAEVILEHDHRGEQTTSQVSWE [A11D]    true (1)
LEAAEVILGHAHRGEQTTSQVSWE [E9G]    false (0)

Q: Form field: protein stability index at least 4? Entry: LEAAEVILEHAHRLEQTTSQVSWE [G14L]
Ans: false (0)

Q: Form field: protein stability index at least 4? Entry: LEAAEVIQEHAHRGEQTTSQVSWE [L8Q]
Ans: true (1)

Q: Form field: protein stability index at least 4? Entry: LEAAEVILWHAHRGEQTTSQVSWE [E9W]
Ans: false (0)
